Biological target: human IL-17AA (Homo sapiens)
Construct: host or cells: HEK (human embryonic kidney) cells
Sequence (Q16552 24-155): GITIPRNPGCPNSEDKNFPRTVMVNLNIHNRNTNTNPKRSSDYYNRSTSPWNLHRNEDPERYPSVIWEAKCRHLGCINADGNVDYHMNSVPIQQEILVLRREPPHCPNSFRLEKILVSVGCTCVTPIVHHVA
Assay: IL-8 release assay in human epithelial keratinocytes adult (HEKa)
Format: cell-based
Conditions: HEKa cells, 3 ng/mL HEK-human IL-17AA + 10 ng/mL human TNFalpha; read-out: Rel EC50 IL-8 release assay
Method: Example 138: IL-8 Release Assay in Human Epithelial Keratinocytes Adult (HEKa) Keratinocytes were seeded at 3500 cells/well in 384-well ViewPlates (Perkin Elmer) in Epilife medium (Thermo Fisher) containing human keratinocyte growth supplement (HKGS) without hydrocortisone and incubated in a humid incubator at 37° C. 5% CO2, overnight. […] IL-8 released from the cells was measured by the use of a commercial homogenous time-resolved fluorescence (HTRF) assay (CisBio). […]
pEC50: −log10 of the molar value.
measurement label: pEC50

| compound | reported measurement |
| --- | --- |
| Cc1n[nH]c(C)c1-c1ccc(NC(=O)[C@H](Cc2ccc(O)cc2)NC(=O)c2ccnn2C)cc1 [Example 45] | < 6.00 |
| Cc1n[nH]c(C)c1-c1ccc(NC(=O)C(NC(=O)c2ccnn2C(C)C)C(C)C2CC2)cc1 (stereo not shown) [Example 282] | 6.00 to 7.00 |
| Cc1n[nH]c(C)c1-c1ccc(NC(=O)[C@@H](NC(=O)c2ccnn2C)C(C)C2CCCCC2)cc1 (stereo partly shown) [Example 220] | > 7.00 |

The record that follows has no pEC50 shown yet.
# pEC50 (compound: Cc1n[nH]c(C)c1-c1ccc(NC(=O)C(NC(=O)c2ccnn2C)[C@@H]2CCOc3ccccc32)cc1 (mixture of isomers) [Example 26] ) is < 6.00

---

This listing pairs compounds with measured pEC50.
target: human IL-17AA (Homo sapiens); construct: host or cells: HEK (human embryonic kidney) cells; assay: IL-8 release assay in human epithelial keratinocytes adult (HEKa); type: cell-based; conditions: HEKa cells, 3 ng/mL HEK-human IL-17AA + 10 ng/mL human TNFalpha; read-out: Rel EC50 IL-8 release assay
pEC50: −log10 of the molar value.

Worked cases, pEC50 given:
| compound | pEC50 |
| --- | --- |
| CC(C)n1nccc1C(=O)N[C@H](C(=O)Nc1ccc(-c2c(C3CC3)ncn2C)cc1)C(C1CC1)C1CC1 | 6.00 to 7.00 |
| CCc1n[nH]c(CC)c1-c1ccc(NC(=O)[C@@H](NC(=O)c2ccnn2CC)C(C2CC2)C2CC2)cc1 | > 7.00 |

Reported pEC50 for "Cc1n[nH]c(CO)c1-c1ccc(NC(=O)[C@@H](NC(=O)c2ccnn2C)C(c2ccccc2)c2ccccc2)cc1" was 6.00 to 7.00

Recorded result, "Cc1n[nH]c(C)c1-c1ccc(NC(=O)[C@@H](NC(=O)N(C)CCCCO)C2CCCCC2)cc1" , pEC50: 6.00 to 7.00

Please fill in: pEC50 reported for Cc1n[nH]c(C)c1-c1ccc(NC(=O)C(NC(=O)c2ccnn2C)[C@H]2CCCc3c(F)cccc32)cc1 (single isomer, unassigned) = > 7.00

pEC50 recorded for this compound, Cn1cncc1-c1ccc(NC(=O)[C@@H](NC(=O)c2ccnn2C)C(C2CCCCC2)C2CCCC2)cc1 (single isomer, unassigned) [Example 339A] , is 6.00 to 7.00

Input "Cc1n[nH]c(C)c1-c1ccc(NC(=O)[C@@H](NC(=O)c2ccnn2CC#N)C(C2CC2)C2CC2)cc1" . Output pEC50: 6.00 to 7.00

---

target: UniProtKB Q16552; test: IL-8 release assay in human epithelial keratinocytes adult (HEKa); conditions: HEKa cells, 3 ng/mL HEK-human IL-17AA + 10 ng/mL human TNFalpha; read-out: Rel EC50 IL-8 release assay
pEC50: −log10 of the molar value.
List of pEC50 values.

Previously resolved entries follow.
| molecule | pEC50 |
| --- | --- |
| Cn1cnnc1-c1ccc(NC(=O)[C@@H](NC(=O)c2ccnn2C)C2CCCCCC2)cc1 | < 6.00 |
| Cc1n[nH]c(C)c1-c1ccc(NC(=O)[C@@H](NC(=O)c2ccnn2C)[C@H]2CCCC3(CC3)C2)cc1 | > 7.00 |
| Cc1n[nH]c(C)c1-c1ccc(NC(=O)[C@@H](NC(=O)c2ccnn2C(C)CO)C(C)C(C)(C)C)cc1 (single isomer, unassigned) [Example 177] | 6.00 to 7.00 |
| Cc1n[nH]c(C)c1-c1ccc(NC(=O)[C@@H](NC(=O)c2ccnn2C)C2C[C@@H](C)C[C@@H](C)C2)cc1 (stereo partly drawn) [Example 146] | > 7.00 |
| Cc1n[nH]c(C)c1-c1ccc(NC(=O)[C@@H](NC(=O)c2ccnn2C)C2CCCCC2)cc1 | 6.00 to 7.00 |

// switching to the query molecule
The molecule "Cc1n[nH]c(C)c1-c1ccc(NC(=O)[C@H](CC(C)(C)C)NC(=O)c2ccnn2C)cc1" showed pEC50 equal to 6.00 to 7.00

---

biological target: human IL-17AA (Homo sapiens, UniProt Q16552); experiment: IL-8 release assay in human epithelial keratinocytes adult (HEKa); conditions: HEKa cells, 3 ng/mL HEK-human IL-17AA + 10 ng/mL human TNFalpha; read-out: Rel EC50 IL-8 release assay
pEC50: −log10 of the molar value.
Below: a set of entries, each annotated with reported pEC50.

Past entries and their recorded results:
| compound | pEC50 |
| --- | --- |
| Cc1ncn(C)c1-c1ccc(NC(=O)[C@@H](NC(=O)c2ccnn2C)C2CCCC2)cc1 [Example 335] | < 6.00 |
| Cc1n[nH]c(C)c1-c1ccc(NC(=O)[C@@H](NC(=O)c2ccnn2CCC(O)C(F)(F)F)C(C2CC2)C2CC2)cc1 (stereo partly shown) [Example 179] | > 7.00 |
| Cc1n[nH]c(C)c1-c1ccc(NC(=O)[C@@H](NC(=O)c2ccnn2C2CC2)C2CCCCC2)cc1 [Example 27] | 6.00 to 7.00 |

compound Cn1cncc1-c1ccc(NC(=O)[C@@H](NC(=O)c2ccnn2C)[C@@H]2CCc3ccc(Br)cc32)cc1 [Example 340] , pEC50 observed: < 6.00

---

Biological target: human IL-17AA (Homo sapiens)
Experiment: IL-8 release assay in human epithelial keratinocytes adult (HEKa)
Settings: HEKa cells, 3 ng/mL HEK-human IL-17AA + 10 ng/mL human TNFalpha; read-out: Rel EC50 IL-8 release assay
Experimental: Example 138: IL-8 Release Assay in Human Epithelial Keratinocytes Adult (HEKa) Keratinocytes were seeded at 3500 cells/well in 384-well ViewPlates (Perkin Elmer) in Epilife medium (Thermo Fisher) containing human keratinocyte growth supplement (HKGS) without hydrocortisone and incubated in a humid incubator at 37° C. 5% CO2, overnight. […] IL-8 released from the cells was measured by the use of a commercial homogenous time-resolved fluorescence (HTRF) assay (CisBio). […]
measurement label: EC50

| compound | reported measurement |
| --- | --- |
| Cc1n[nH]c(C)c1-c1ccc(NC(=O)C(NC(=O)c2ccnn2C)C2CCc3c(F)cccc32)cc1 (single isomer, unassigned) [Example 248] | > 1000 nM |
| Cc1n[nH]c(C)c1-c1ccc(NC(=O)[C@@H](NC(=O)c2ccnn2C(C)C)[C@H]2CCOc3ccccc32)cc1 | < 100 nM |
| Cn1cncc1-c1ccc(NC(=O)[C@@H](NC(=O)OC(C)(C)C)C2CCCCC2)cc1 | > 1000 nM |
| Cc1n[nH]c(C)c1-c1ccc(NC(=O)[C@@H](NC(=O)N2CCCC2CCO)C2CCCCC2)cc1 (single isomer, unassigned) [Example 467] | > 1000 nM |
| Cc1n[nH]c(C)c1-c1ccc(NC(=O)C(NC(=O)c2ccnn2C)[C@@H](C)c2ccccc2)cc1 (single isomer, unassigned) | 100 to 1000 nM |

Consider the additional compound presented here.
Memo: "Cc1n[nH]c(C)c1-c1ccc(NC(=O)[C@@H](NC(=O)C2(F)CC2)C2CCC(F)(F)CC2)cc1" , reported EC50: > 1000 nM

---

Listing of entries alongside the reported pEC50.
target: human IL-17AA (Homo sapiens, UniProt Q16552); assay: IL-8 release assay in human epithelial keratinocytes adult (HEKa); conditions: HEKa cells, 3 ng/mL HEK-human IL-17AA + 10 ng/mL human TNFalpha; read-out: Rel EC50 IL-8 release assay
pEC50: −log10 of the molar value.

Observe how each entry below is paired with its result.
| molecule | reported measurement |
| --- | --- |
| Cc1n[nH]c(C)c1-c1ccc(NC(=O)[C@@H](NC(=O)c2ccnn2C(C)C)C2C3CC4CC(C3)CC2C4)cc1 (stereo partly shown) | > 7.00 |
| Cc1n[nH]c(C)c1-c1ccc(NC(=O)[C@@H](NC(=O)c2ccnn2CCCO)C(C2CC2)C2CC2)cc1 | > 7.00 |
| CC[C@H](C)[C@H](NC(=O)c1ccnn1C)C(=O)Nc1ccc(-c2c(C)n[nH]c2C)cc1 | 6.00 to 7.00 |

Record Cn1cncc1-c1ccc(NC(=O)C(NC(=O)c2ccnn2C)C(c2cccc(Cl)c2)c2cccc(Cl)c2)cc1 (single isomer, unassigned) [Example 373A] has human IL-17AA (Homo sapiens, UniProt Q16552) pEC50 equal to 6.00 to 7.00

// pEC50 (human IL-17AA (Homo sapiens, UniProt Q16552)) for "Cc1n[nH]c(C)c1-c1ccc(NC(=O)[C@@H](NC(=O)c2ccnn2CCC(F)(F)F)C(C2CC2)C2CC2)cc1" = > 7.00

Response field pEC50 (human IL-17AA (Homo sapiens, UniProt Q16552)) for item Cc1n[nH]c(C)c1-c1ccc(NC(=O)[C@@H](NC(=O)N2CCCCC2CCCO)C2CCCCC2)cc1 (single isomer, unassigned) [Example 461] : < 6.00

Fill in: human IL-17AA (Homo sapiens, UniProt Q16552) pEC50 for "Cn1cncc1-c1ccc(NC(=O)[C@@H](NC(=O)C2(F)CC2)C(c2ccccc2)c2ccccc2)cc1" = 6.00 to 7.00
